Attribution: PubChem BioAssay (NCI)

The compounds listed here are annotated with their growth.
# Test system: SR leukemia
# Procedure Text: NCI-60 one-dose screen, 48 h (100 = growth as untreated, 0 = no growth, -100 = all killed)
# Recorded Conditions: 10 µM unless noted
About 83,000 compounds went through this panel and 20% of them were active in at least one assay; those are over-represented in the sample as a whole.
Metric Name: growth (%)

{"Compound": "c1ccc2c[n+](Cc3ccc4ccccc4n3)ccc2c1", "Target Desc": "SR leukemia", "Metric Name": "growth", "Observed": 98.1}
{"Compound": "Cc1cnc(N)s1", "Target Desc": "SR leukemia", "Metric Name": "growth", "Observed": 101}
{"Compound": "COC(=O)c1cc(C(=O)OC)cc([N+](=O)[O-])c1", "Target Desc": "SR leukemia", "Metric Name": "growth", "Observed": 74.7}
{"Compound": "N=C(N=C(N)N)N1CCOCC1", "Target Desc": "SR leukemia", "Metric Name": "growth", "Observed": 103}
{"Compound": "CC1CC(O)CC(C)(C)C1.CC1CC(O)CC(C)(C)C1.CC1CC(O)CC(C)(C)C1.CC1CC(O)CC(C)(C)C1.[Ti] (stereo unspecified)", "Target Desc": "SR leukemia", "Metric Name": "growth", "Observed": 81.1}
{"Compound": "O=C1C2=C(Nc3cc(Cl)ccc3N2)OC1c1c[nH]c2ccc(COc3ccccc3)cc12 (stereo unspecified)", "Target Desc": "SR leukemia", "Metric Name": "growth", "Observed": 85.4}
